- assay_notes: Toxicity (LD50), subcutaneous administration, rats
- measurement_context: rat, in vivo, sc, read-out: LD₅₀
- Protocol: The toxicity of kojic acid which is the effective ingredient of the present invention is extremely low; LD₅₀ is 2.050 mg/kg in mice and 2.260 mg/kg in rats, by subcutaneous administration. Therefore, the present invention is quite safe as a medicament.
recorded_endpoint: LD50 (mg/kg)
Give bare numbers, in mg/kg.

INPUT: Please list LD50 recorded for the compound O=c1cc(CO)occ1O
OUTPUT: 2.26

* * *

- assay_notes: Toxicity (LD50), subcutaneous administration, mice
- measurement_context: mouse, in vivo, sc, read-out: LD₅₀
recorded_endpoint: LD50 (mg/kg)
One number for each entry, in mg/kg.

INPUT: Report measured LD50; entry is O=c1cc(CO)occ1O
OUTPUT: 2.05
